Sourced from patent US10752609B2

# IC50 annotations
- TESTED_TARGET: GSK3β (Homo sapiens, UniProt P49841)
- Sequence (P49841 whole entry, species assumed): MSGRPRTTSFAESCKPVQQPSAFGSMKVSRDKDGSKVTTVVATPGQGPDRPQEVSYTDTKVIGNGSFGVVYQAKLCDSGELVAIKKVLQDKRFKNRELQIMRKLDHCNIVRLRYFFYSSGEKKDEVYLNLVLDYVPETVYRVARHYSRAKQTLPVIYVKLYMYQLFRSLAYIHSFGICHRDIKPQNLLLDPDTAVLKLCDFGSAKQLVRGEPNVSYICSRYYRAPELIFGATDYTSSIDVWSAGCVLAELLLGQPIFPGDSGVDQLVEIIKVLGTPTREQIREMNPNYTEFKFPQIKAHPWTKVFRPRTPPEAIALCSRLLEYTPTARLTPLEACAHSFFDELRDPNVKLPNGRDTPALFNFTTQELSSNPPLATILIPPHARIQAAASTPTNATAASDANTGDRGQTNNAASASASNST
- PROTOCOL_NOTES: GSK3β kinase assay (Caliper LabChip3000 mobility shift, fluoresceinated peptide substrate)
- Type: biochemical
- CONDITIONS: 250 pM enzyme, 20 uM ATP, 1.5 uM peptide, 20 hours room temperature; first value of cell GSK3β/GSK3α; read-out: GSK3β (nM), IC50
Could you give me the number in nM? Just the number is fine.

These recorded examples may help you get a feel for the data.
# ENTRY_SMILES, IC50 [nM]
records = [
    ("O=C(Nc1cnccc1-c1ccccc1)c1ccnc(Nc2ccc(F)nc2)n1", 0.8),
    ("O=C(Nc1cnccc1N1CCC(F)(F)CC1)c1ccnc(Nc2ccccc2)n1", 0.2),
    ("Cc1ccc(Nc2nccc(C(=O)Nc3cncc(-c4ccccc4F)c3)n2)cn1", 3.1),
    ("O=C(Nc1cnccc1-c1ccccc1)c1ccnc(Nc2cc(OC(F)F)c(Cl)cc2F)n1", 2.3),
]

Continue with the next compound.
Recorded IC50 for "Cn1nc(C2CC2)cc1Nc1nccc(C(=O)Nc2cnccc2-c2ccccc2)n1" , please?
29

---

Here we list compounds with their recorded IC50 when tested on GSK3α (Homo sapiens).
Sequence (P49840 whole entry, species assumed): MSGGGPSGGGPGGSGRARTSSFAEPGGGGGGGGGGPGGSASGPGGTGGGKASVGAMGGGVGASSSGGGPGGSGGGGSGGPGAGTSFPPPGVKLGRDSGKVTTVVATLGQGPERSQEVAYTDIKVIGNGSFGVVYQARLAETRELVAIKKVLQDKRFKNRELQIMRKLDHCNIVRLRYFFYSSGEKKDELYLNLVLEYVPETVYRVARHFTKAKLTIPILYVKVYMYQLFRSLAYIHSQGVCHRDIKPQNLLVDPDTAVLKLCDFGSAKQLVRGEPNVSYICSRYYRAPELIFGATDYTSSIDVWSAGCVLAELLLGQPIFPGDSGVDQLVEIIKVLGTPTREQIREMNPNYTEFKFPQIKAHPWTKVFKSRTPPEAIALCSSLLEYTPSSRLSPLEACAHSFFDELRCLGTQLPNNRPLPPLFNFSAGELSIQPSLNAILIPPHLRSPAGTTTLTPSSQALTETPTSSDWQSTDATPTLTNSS
Could you give me the number in nM? Just the number is fine.

These recorded examples may help you get a feel for the data.
# ENTRY_SMILES, TESTED_TARGET, IC50 (nM)
records = [
    ("CC(C)OCCCNc1nccc(C(=O)Nc2cnccc2-c2ccccc2)n1", "GSK3α (Homo sapiens)", 0.59),
    ("CCO[C@H]1COC[C@@H]1Nc1nccc(C(=O)Nc2cnccc2-c2ccccc2)n1", "GSK3α (Homo sapiens)", 2.2),
    ("O=C(Nc1cnccc1OCC(F)(F)F)c1ccnc(NC2CCCC2)n1", "GSK3α (Homo sapiens)", 0.16),
    ("O=C(Nc1cncc(-c2ccccc2F)c1)c1ccnc(Nc2ccc(OC(F)F)nc2)n1", "GSK3α (Homo sapiens)", 15),
]

Recorded IC50 for "O=C(Nc1cnccc1OCC(F)(F)F)c1ccnc(NCc2ccccc2F)n1" , please?
1.8

---

- TESTED_TARGET: GSK3β (Homo sapiens, UniProt P49841)
- PROTOCOL_NOTES: GSK3β kinase assay (Caliper LabChip3000 mobility shift, fluoresceinated peptide substrate)
- Assay type: biochemical
- CONDITIONS: 250 pM enzyme, 20 uM ATP, 1.5 uM peptide, 20 hours room temperature; first value of cell GSK3β/GSK3α; read-out: GSK3β (nM), IC50
ENDPOINT_NAME: IC50 (nM)
Could you give me the number in nM? Just the number is fine.

These recorded examples may help you get a feel for the data.
# ENTRY_SMILES, IC50 (nM)
rows = [
    ("Cc1ccccc1-c1cccc(Nc2nccc(C(=O)Nc3cncnc3)n2)c1", 5.2),
    ("Cc1ccc(Nc2nccc(C(=O)Nc3cnccc3-c3ccccc3)n2)cc1", 0.31),
    ("O=C(Nc1cnccc1OCC(F)(F)F)c1ccnc(Nc2ccc(F)cc2F)n1", 5.3),
    ("O=C(Nc1cnccc1OCC(F)(F)F)c1ccnc(Nc2ccc3cccnc3c2)n1", 0.17),
    ("N#Cc1ccc(Nc2nccc(C(=O)Nc3cnccc3OCC(F)(F)F)n2)cn1", 0.18),
    ("Cn1cc(Nc2nccc(C(=O)Nc3cnccc3-c3ccccc3)n2)nn1", 78),
    ("O=C(Nc1cnccc1-c1ccc(F)cc1F)c1ccnc(Nc2ccc(F)cc2F)n1", 1.5),
    ("O=C(Nc1cncnc1OCC(F)(F)F)c1ccnc(Nc2ccc(Cl)cc2)n1", 0.97),
]

Continue with the next molecule.
# value lookup — system GSK3β (Homo sapiens, UniProt P49841), readout IC50, item "CC(C)OCCCNc1nccc(C(=O)Nc2cnccc2-c2ccccc2)n1"
0.88

---

# IC50 annotations
- TESTED_TARGET: GSK3β (Homo sapiens, UniProt P49841)
- PROTOCOL_NOTES: GSK3β kinase assay (Caliper LabChip3000 mobility shift, fluoresceinated peptide substrate)
- Assay type: biochemical
- CONDITIONS: 250 pM enzyme, 20 uM ATP, 1.5 uM peptide, 20 hours room temperature; first value of cell GSK3β/GSK3α; read-out: GSK3β (nM), IC50

These recorded examples may help you get a feel for the data.
# ENTRY_SMILES, TESTED_TARGET, IC50
records = [
    ("CC(C)(C)CNc1nccc(C(=O)Nc2cncnc2N2CCOCC2)n1", "GSK3β (Homo sapiens, UniProt P49841)", "13 nM"),
    ("CC(=O)Nc1ccc(Nc2nccc(C(=O)Nc3cnccc3-c3ccccc3)n2)cn1", "GSK3β (Homo sapiens, UniProt P49841)", "1.4 nM"),
    ("COc1cc(Nc2nccc(C(=O)Nc3cnccc3-c3ccccc3)n2)ccn1", "GSK3β (Homo sapiens, UniProt P49841)", "0.54 nM"),
    ("COc1ccc(Nc2nccc(C(=O)Nc3cnccc3OCC(F)(F)F)n2)cc1F", "GSK3β (Homo sapiens, UniProt P49841)", "0.08 nM"),
    ("CN1C(C)(C)CC(Nc2nccc(C(=O)Nc3cnccc3OCC(F)(F)F)n2)CC1(C)C", "GSK3β (Homo sapiens, UniProt P49841)", "250 nM"),
]

# value lookup — system GSK3β (Homo sapiens, UniProt P49841), readout IC50, item "O=C(Nc1cnc(F)cc1N1CCC(F)(F)CC1)c1ccnc(Nc2ccc(C(F)(F)F)cc2)n1"
2.9 nM

Also "CC(C)Nc1nccc(C(=O)Nc2cnccc2-c2ccc(F)cc2)n1" ?
0.71 nM

Also "O=C(Nc1cnccc1-c1ccccc1)c1ccnc(Nc2cc(Cl)c(Cl)cc2F)n1" ?
0.89 nM

---

- TESTED_TARGET: GSK3β (Homo sapiens)
- PROTOCOL_NOTES: GSK3β kinase assay (Caliper LabChip3000 mobility shift, fluoresceinated peptide substrate)
- Type: biochemical
- CONDITIONS: 250 pM enzyme, 20 uM ATP, 1.5 uM peptide, 20 hours room temperature; first value of cell GSK3β/GSK3α; read-out: GSK3β (nM), IC50
ENDPOINT_NAME: IC50 (nM)
Could you give me the number in nM? Just the number is fine.

These recorded examples may help you get a feel for the data.
# COMPOUND, IC50 / nM
rows = [
    ("O=C(Nc1cnccc1-c1ccccc1)c1ccnc(Nc2cnn(-c3cc(F)ccc3F)c2)n1", 7.2),
    ("O=C(Nc1cncnc1OCC(F)(F)F)c1ccnc(Nc2cc(F)c(Cl)cc2F)n1", 1.6),
    ("Cc1ccc(Nc2nccc(C(=O)Nc3cnccc3OCC(F)(F)F)n2)cn1", 0.22),
    ("CC(Nc1nccc(C(=O)Nc2cnccc2-c2ccc(F)cc2)n1)C(C)(C)C (stereo not drawn)", 2.2),
    ("Cc1cc(Nc2nccc(C(=O)Nc3cnccc3-c3ccccc3)n2)sn1", 5.7),
]

# value lookup — system GSK3β (Homo sapiens), readout IC50, item "O=C(Nc1cnccc1-c1ccccc1)c1ccnc(Nc2ccc(OC(F)F)cc2)n1"
0.45

Also "O=C(Nc1cnc(F)cc1OCC(F)(F)F)c1ccnc(NC2CCC2)n1" ?
1.2

Also C[S+]([O-])c1ccc(Nc2nccc(C(=O)Nc3cnccc3-c3ccccc3)n2)cc1 (stereo not drawn) ?
0.39

---

- TESTED_TARGET: GSK3α (Homo sapiens)
Kindly apply the following: t if IC50 is less than 0.6 nM, f in every other case.

# count of solved cases: 5
# COMPOUND, TESTED_TARGET, CLASS_ASSIGNMENT
records = [
    ("O=C(Nc1cnccc1-c1ccc(F)cc1)c1ccnc(Nc2ccc(C(F)(F)F)cc2)n1", "GSK3α (Homo sapiens)", "f"),
    ("O=C(Nc1cnccc1-c1ccc(F)cc1)c1ccnc(NC2CCCCC2)n1", "GSK3α (Homo sapiens)", "t"),
    ("C[S+]([O-])c1ccc(Nc2nccc(C(=O)Nc3cnccc3-c3ccccc3)n2)cc1 (centres unmarked)", "GSK3α (Homo sapiens)", "t"),
    ("O=C(Nc1cnccc1-c1ccccc1)c1ccnc(Nc2ccncc2)n1", "GSK3α (Homo sapiens)", "f"),
    ("O=C(Nc1cnccc1OCC(F)(F)F)c1ccnc(NCc2ccc(F)cc2)n1", "GSK3α (Homo sapiens)", "f"),
]

Is 0.6 nM strictly greater than the compound's reported IC50? compound: "N#Cc1ccc(Nc2nccc(C(=O)Nc3cnccc3-c3ccccc3)n2)cc1"
t

Also "O=C(Nc1cnccc1-c1ccccc1)c1ccnc(NCC2CC2)n1" ?
t

Also "O=C(Nc1cnccc1OCC(F)(F)F)c1ccnc(NCc2cc(C(F)(F)F)cc(C(F)(F)F)c2)n1" ?
f

---

- TESTED_TARGET: UniProt P49841
- PROTOCOL_NOTES: GSK3β kinase assay (Caliper LabChip3000 mobility shift, fluoresceinated peptide substrate)
- Format: biochemical
- CONDITIONS: 250 pM enzyme, 20 uM ATP, 1.5 uM peptide, 20 hours room temperature; first value of cell GSK3β/GSK3α; read-out: GSK3β (nM), IC50
# IC50 annotations
Could you give me the number in nM? Just the number is fine.

# COMPOUND, ASSAY_VALUE
rows = [
    ("O=C(Nc1cnccc1OCC(F)(F)F)c1ccnc(Nc2ccc(OC(F)(F)F)cc2)n1 [Example 59]", 0.18),
    ("CCOc1ccc(Nc2nccc(C(=O)Nc3cnccc3OCC(F)(F)F)n2)cc1 [Example 53]", 0.35),
    ("CC(C)C(C)Nc1nccc(C(=O)Nc2cnccc2OCC(F)(F)F)n1 (stereo not shown) [Example 125]", 1.1),
]

Continue with the next compound.
Recorded IC50 for CCO[C@H]1COC[C@@H]1Nc1nccc(C(=O)Nc2cnccc2-c2ccccc2)n1 [Example 92] , please?
3.8
